experiment: amyloid nucleation score (Sup35N fusion, yeast selection) (log enrichment); library NNK3; higher = more nucleation; inactive = no reads after selection;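 further: zero at mode of non-aggregating sequences after 7 days selection at 30°C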
measure name: amyloid nucleation score

VVSHGF	inactive
PFWVTVYMDILLVKQQPLSV	inactive
CVDVSGLFGNIMEVILVMSW	inactive
FGKRQSAMLLDLNSGWSNLD	-0.42
ASTLLHYCLLNSGYEWSGQC	0.251
DMMYVIRIFFLATEYSSLHP	inactive

Any idea what its amyloid nucleation score is? The substance is `WGVNYMLWDCIYEATLSLIP`
inactive

// same read-out, input: `SIAIRVRAIIGKSRGKCPNG`
1.81

Do the same for `YVAIMLAKSKTRS` please
inactive

###

experiment: amyloid nucleation score (Sup35N fusion, yeast selection) (log enrichment); library NNK3; higher = more nucleation; inactive = no reads after selection
measure name: amyloid nucleation score

KGVGFPVCTSNG	inactive
GQNPSLRLVKESGF	inactive
LLSPQFRRIGSFRWKFAPRF	inactive
LLLVKSTI	-0.176
LYNFRECTQTSFISFVCQLV	inactive

What does the record list as amyloid nucleation score for `ALIKFLEFKGRSAWSMRFIA` ?
inactive

How about `VRGQFSSSVLGRCLGWAWTR` ?
inactive

Now this one: `HLLIHANF`
1.25

Further, for `TTLLFMKH` ?
inactive

###

assay: amyloid nucleation score (Sup35N fusion, yeast selection) (log enrichment); library NNK1; higher = more nucleation; inactive = no reads after selection
Record Met whenever amyloid nucleation score is at 0.1 or higher; record Not met when lower.

IILWAWCKTGGDGIPSGVVL	Met
LDIDTKW	Not met
LHGPWVVYFELSSIFTLTYQ	Not met
LILFLASV	Met
TIVYATGMNMYTDAC	Not met
SDVEEGLRL	Met
NSATRREPSVVGLYWSVR	Not met
NNLTVLIWVMPMDRI	Met

Say whether `LKGHLHDSILQCRHKALFF` shows amyloid nucleation score of 0.1 or more.
Met

For `GLPKSFM` then?
Not met

Entry to check: `VRSRLLQNLSDIPNQPIRWD`
Not met

Also `NLKVESPGNGSWICTLEWVW` , if possible.
Met

And the next one, `HVWSILAISVYNAHRGSRV` ?
Met

`SYVRLFERFWVNFRSHMGNC` ?
Not met

###

assay: amyloid nucleation score (Sup35N fusion, yeast selection) (log enrichment); library NNK1; higher = more nucleation; inactive = no reads after selection
measure name: amyloid nucleation score

Here are 5 substances together with their reported answers.
LVWSGLHVGGHSWVGFTGVV	0.241
GRRYCRANSWLATTSSRISL	2.1
VYAYTQLKQGRRHEQGTWS	inactive
SISNTLLGLEEWLPNYVNVF	0.871
NPFCFMMRTGRSGSGWVKRR	0.088

Param item = `FKWLTVRGNDRGILDDG` ; retrieve measured amyloid nucleation score.
-0.158

Request: `FRKTMLWVLVVMGPIFTGSR`
0.548

One more substance: `NTVFVIDESFGVMGWLGLKQ`
0.294

Same lookup for `AVELAKSPLWIPKLGYVMNQ` , please.
0.233

Continue with `ISQVYGDNTDFVLLVSSDNV`
0.544

Subsequent entry: `GPRDFGDAWCYTSNNVKSCS`
0.216

Moving on to `DLLYERTYRSVVISLRTLAG`
0.816

Also `IHSQHKHVIMRA` , if possible.
-0.061

Similarly, `FGQNFEGIWPFVVKNRRLGQ` ?
-1.12

Another substance: `ASAWGLGYEFPWSRSYSAKT`
-0.209

Now give it for `SAIMEVLRMDDTCLWSNWVM` too.
0.057

Subsequent entry: `NVLVAVFLFYVGPIGVAHCY`
1.12

Try the substance `SGMHHHDKARNRG`
1.26

// next record `MFSTLH`
0.178

Would you mind doing `KANPDHIPRRLDYRGSGPSR` as well?
-0.482

Then `MGTLDI` ?
inactive

// same read-out, input: `NCSGVFKGKSLTSCGT`
-0.038

Again, but for `LLVLSLINFFFKKRAFCPIT`
2.11

Lookup `NCFRLILFVLSDHRQWCFES`
-1.78

Subsequent entry: `TEDVKAVKVLGLTLGVQVIT`
-0.657

Would you mind doing `FNYVILTFWVKYTFSAHCV` as well?
-0.271

Here is the next substance: `NWYYRWELFVACFYLYSGWE`
inactive

###

test: amyloid nucleation score (Sup35N fusion, yeast selection) (log enrichment); library NNK3; higher = more nucleation; inactive = no reads after selection
measure name: amyloid nucleation score

GWNTSSQRLHSAKPSHHRR	-0.892
CSLVLSESPFGNI	inactive
RPQSLVYRFISYHRLYYLYR	inactive
DFVRSNNCYWCFAAFSPCFR	inactive

Query (sequence): `TIGGNWGHWVVVIFV` ; field requested: amyloid nucleation score
0.064

###

assay: amyloid nucleation score (Sup35N fusion, yeast selection) (log enrichment); library NNK2; higher = more nucleation; inactive = no reads after selection
Values of amyloid nucleation score greater than or equal to 1 map to yes (1); values below map to no (0).

DRYISLCGW	no (0)
SVKCWRWFGA	yes (1)
SMGSPETC	no (0)
YEHLDIGNHKLGRCNRNFIA	no (0)
LRKVLW	no (0)
YSYEHTRWTSLGGWHLR	yes (1)
YDERTWGTECMCTSCSCADK	yes (1)
GHTPCPHNVVRTHVLSWHGL	yes (1)

Then there is this substance:
// inclusive: amyloid nucleation score at least 1? input: `FKGSDHCSKCRQVGEFVFST`
no (0)

###

assay: amyloid nucleation score (Sup35N fusion, yeast selection) (log enrichment); library NNK2; higher = more nucleation; inactive = no reads after selection
// reported amyloid nucleation score for each item listed
The answer should be a number; do not append a unit.

TNCSPVVPSCD	0.224

// lookup amyloid nucleation score for `DCFFFKSWVSLGKIMLSTFS`
-0.997

Likewise for `FVCPFVVCYAGIGGRGGYVM` ?
0.173

Field entry: `NRMEYV`
1.02

// repeat for `DHSYRRYVVEGLFSVSQNGK` and report
0.21

Please give the result for `VFWNIAFNSYMQRSCYIVVF` too.
2.12

// query: `VDKLGKLEVYSWLYWV`
-1.86

What do you get for `YICVTMPVWIH` ?
7.54

Param item: `VTTKKHPIYTVTRRDRKPGD`
0.524

What do you have for `SSPHWSK` ?
-0.051

###

amyloid nucleation score listing for selected sequences.
experiment: amyloid nucleation score (Sup35N fusion, yeast selection) (log enrichment); library NNK2; higher = more nucleation; inactive = no reads after selection

Illustrative cases are given below, each with its answer.
FAKIRGLITFVLQMWVTVYV	-0.278
GDTPGSLYCNLISEGAI	0.119
KSTGDCFLKMINYYCGWS	6.07
GKDGKLTSMAHSYHDYVMRR	0.129
VGIEEVIH	-0.249
ARYLITTAQVPVLGPRSQHK	0.073
CKIEGWCTGCGSRQLRARAE	1.09
IVGCLGDGVRLL	-0.563

Look up amyloid nucleation score: `GYGSSYLMQARSNRRISVFL`
-0.758

Same again, this time with `GGSKTRLFL`
-0.263

Same question for `IFKQVTIYLYGGRSLLGSRR` please.
-0.507

And then `NFHGDAYLESVRWIHIRNKR` , what is it?
-0.735

Repeat for the following sequence: `KKEVINWYFLTYAGLEKLCL`
-0.715

###

assay: amyloid nucleation score (Sup35N fusion, yeast selection) (log enrichment); library NNK2; higher = more nucleation; inactive = no reads after selection
measure name: amyloid nucleation score
Would you mind answering with just the numeric figure?

Previously resolved entries follow.
RDIRWIYEDTLISSGIWRSL	2.62
YCLVSIKMCYGYVVGSLVGW	2.63
GLLGKTASTYAVRVWGIGVG	1.03
LNYNYTQDR	-0.751
QVWSFDGCS	-0.15

I'd like to know its amyloid nucleation score. The substance in question is `LARCGPKLW`
3.43

Next record, please: `MPGQFHFVMNFRINRNYIRS`
5.92

And then `VTIFILFSLNSGGHGSDRVW` , what is it?
4.85

Now consider `SMLGKRIFYRCSRLMHNF` and answer again.
-0.175

Same read-out for `GNLSNSQTIWFRSNTAISLN` ?
1.98

How about this substance: `VTVRRCSFFQVY`
-0.196

Can you handle `VMDLDAGTCWCISISGLTVR` next?
0.533

Consider next the substance `LQVRSDSMNGFNW` in the same way.
-0.61

Here is the next substance: `QDVSYPSWYPGAFC`
-0.675

Can you handle `RFCRHRMRGILP` next?
1.06

Then this substance: `LTIFNYSFWKVDY`
0.91

Note, next up: `LEWLFA`
0.155

Continue with `LSHLISFRLTTTSNFRFWDH`
3.15
